- SYSTEM_NAME: GlcNAc(a1-4)Gal(b1-4)GlcNAc(b1-3)Gal(b1-4)[Fuc(a1-3)]GlcNAc(b1-3)Gal(b1-4)[Fuc(a1-3)]GlcNAc
- MEASUREMENT_NOTES: glycan array binding signal (z-score within array); higher = stronger binding
- TEST_PARAMETERS: glycan notation: IUPAC condensed, linker removed
The entries come from a sample that favours the strongest signals as a whole.

- BINDER: "DC-SIGN (Canis lupus), XP_853402 (protein) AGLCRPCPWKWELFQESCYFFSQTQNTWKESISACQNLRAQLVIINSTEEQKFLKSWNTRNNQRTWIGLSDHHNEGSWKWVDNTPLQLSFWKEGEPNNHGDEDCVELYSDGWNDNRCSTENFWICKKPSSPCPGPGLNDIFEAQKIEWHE"
  glycan array binding signal (z-score): 1.73
- BINDER: "Pp2-A2 (Arabidopsis thaliana), Q07098 (protein) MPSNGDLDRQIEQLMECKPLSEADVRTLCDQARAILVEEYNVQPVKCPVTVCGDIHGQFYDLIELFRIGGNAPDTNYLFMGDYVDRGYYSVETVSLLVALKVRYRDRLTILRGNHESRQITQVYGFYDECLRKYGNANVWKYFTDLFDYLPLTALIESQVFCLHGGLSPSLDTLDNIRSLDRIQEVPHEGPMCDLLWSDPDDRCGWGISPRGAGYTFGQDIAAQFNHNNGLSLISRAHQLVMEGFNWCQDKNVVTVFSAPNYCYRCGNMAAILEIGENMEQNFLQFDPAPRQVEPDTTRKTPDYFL"
  glycan array binding signal (z-score): 5.17
- BINDER: "OS9-MRH (Homo sapiens), Q13438 (protein) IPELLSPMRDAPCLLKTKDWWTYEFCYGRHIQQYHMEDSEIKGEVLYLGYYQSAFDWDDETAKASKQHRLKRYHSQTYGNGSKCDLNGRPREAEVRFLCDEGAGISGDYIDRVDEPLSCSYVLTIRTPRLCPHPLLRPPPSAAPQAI"
  glycan array binding signal (z-score): 1.12
- BINDER: "DBA (Dolichos biflorus) (protein) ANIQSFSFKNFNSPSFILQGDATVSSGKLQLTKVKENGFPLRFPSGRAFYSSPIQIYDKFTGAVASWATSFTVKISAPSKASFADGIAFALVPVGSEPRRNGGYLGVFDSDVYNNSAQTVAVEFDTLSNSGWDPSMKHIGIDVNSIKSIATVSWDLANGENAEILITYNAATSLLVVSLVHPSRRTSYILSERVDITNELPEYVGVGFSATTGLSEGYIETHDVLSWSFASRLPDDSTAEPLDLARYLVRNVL"
  glycan array binding signal (z-score): -0.007
- BINDER: "LBL-152 (Laetiporus bicolor), B0D650 (protein) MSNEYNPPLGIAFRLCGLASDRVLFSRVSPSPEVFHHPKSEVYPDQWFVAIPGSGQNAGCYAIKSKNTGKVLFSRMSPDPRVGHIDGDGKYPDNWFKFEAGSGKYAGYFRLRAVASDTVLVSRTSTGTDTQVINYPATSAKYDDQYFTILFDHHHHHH"
  glycan array binding signal (z-score): -0.147
- BINDER: "Cohesin-hMARCO (Homo sapiens) (protein) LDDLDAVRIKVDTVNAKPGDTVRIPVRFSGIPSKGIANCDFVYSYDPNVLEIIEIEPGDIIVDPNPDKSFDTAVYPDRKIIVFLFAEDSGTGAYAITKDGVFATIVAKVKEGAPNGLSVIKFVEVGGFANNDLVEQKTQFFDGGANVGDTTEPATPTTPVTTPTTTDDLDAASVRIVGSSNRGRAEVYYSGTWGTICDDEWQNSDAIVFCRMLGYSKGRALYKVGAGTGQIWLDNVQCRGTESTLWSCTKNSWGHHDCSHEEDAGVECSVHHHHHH"
  glycan array binding signal (z-score): -0.104
- BINDER: "GNL (Galanthus nivalis) (protein) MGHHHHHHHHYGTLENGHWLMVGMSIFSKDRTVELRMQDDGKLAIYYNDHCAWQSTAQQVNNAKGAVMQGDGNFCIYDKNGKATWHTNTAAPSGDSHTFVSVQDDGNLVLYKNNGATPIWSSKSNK"
  glycan array binding signal (z-score): -0.175
- BINDER: "ArathEULS3 (Arabidopsis thaliana), Q945P1 (protein) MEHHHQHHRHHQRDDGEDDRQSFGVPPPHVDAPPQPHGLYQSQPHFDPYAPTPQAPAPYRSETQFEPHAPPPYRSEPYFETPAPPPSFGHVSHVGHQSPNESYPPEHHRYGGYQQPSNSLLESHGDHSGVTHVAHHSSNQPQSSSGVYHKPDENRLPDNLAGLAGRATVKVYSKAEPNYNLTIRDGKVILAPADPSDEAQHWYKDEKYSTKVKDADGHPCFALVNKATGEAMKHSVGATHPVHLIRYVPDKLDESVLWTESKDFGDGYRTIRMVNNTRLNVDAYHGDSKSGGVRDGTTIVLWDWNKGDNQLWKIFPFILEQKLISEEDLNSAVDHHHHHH"
  glycan array binding signal (z-score): 3.11
- BINDER: "Gal 1 (Mus musculus), P16045 (protein) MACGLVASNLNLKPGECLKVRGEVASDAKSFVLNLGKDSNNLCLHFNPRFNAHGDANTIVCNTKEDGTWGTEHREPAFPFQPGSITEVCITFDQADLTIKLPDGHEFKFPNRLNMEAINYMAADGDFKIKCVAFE"
  glycan array binding signal (z-score): -0.015
- BINDER: "AT3G44510(29) (Arabidopsis thaliana), F4J341 (protein) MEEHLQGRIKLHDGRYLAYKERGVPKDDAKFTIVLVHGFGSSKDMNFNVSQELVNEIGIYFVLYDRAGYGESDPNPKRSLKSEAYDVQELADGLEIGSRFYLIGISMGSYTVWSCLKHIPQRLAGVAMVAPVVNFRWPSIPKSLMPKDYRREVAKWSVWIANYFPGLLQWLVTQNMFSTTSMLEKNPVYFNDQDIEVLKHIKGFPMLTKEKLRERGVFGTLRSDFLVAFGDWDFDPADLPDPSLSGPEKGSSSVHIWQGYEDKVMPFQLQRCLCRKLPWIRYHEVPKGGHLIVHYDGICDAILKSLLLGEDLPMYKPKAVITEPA"
  glycan array binding signal (z-score): 1.31
